Data origin, for the record: PubChem BioAssay (NCI)

TGI overview
System: 786-0 renal
assay.name: NCI tumour cell line growth inhibition, 48 h

// solved cases for TGI follow
molecule	result
COC(=O)CC1NC(=O)[C@@H]1C(C)O (some centres not stated)	> 100 µM
COc1cc(-c2cc(-c3ccccc3)nc(-c3c(OC)ccc4c(C)cc(=O)oc34)c2)cc(OC)c1OC	> 100 µM
O=C(Nc1ccncc1)C(=O)c1cn(Cc2ccc(Cl)cc2)c2ccccc12	> 100 µM
COc1cccc(C2=C(c3c(C)n(C)c4ccccc34)C(=O)NC2=O)c1	> 25 µM
Cc1ccc([N+](=O)[O-])cc1NC(=O)/C(=N/NC(=S)NN)C1SC(=S)NC1=O (configuration not stated)	> 100 µM

Per the record, `COC(=O)c1ccccc1OCc1cc(=O)oc2ccc(C)cc12` has TGI of > 100 µM

Reported TGI of `O=C(O)c1cc2ccc3ccccc3c2oc1=O` : > 100 µM

Sure, the documented TGI for `COc1ccc2c(c1)[n+]([O-])c(-c1ccc(OC)c(OC)c1)c(N)[n+]2[O-]` is > 100 µM

So for `COc1cccc(-n2nc(C)c3c(N/N=C(\C)c4ccncc4)ncnc32)c1` , the logged TGI turned out to be > 25 µM

Field TGI (entry `COc1ccc(-c2nc(-c3ccccc3)c(-c3ccccc3)[nH]2)cc1OC1CCCC1` ) reads > 100 µM

Note to self: TGI recorded for `O=c1ccn([C@@H]2C[C@@H]2CO)c(=O)[nH]1` was > 100 µM

Lab note: measured TGI of `O=C(CCCN1CCC2(CC1)CC(=O)N(N1CCCCCC1)C2=O)c1ccccc1` was > 100 µM

###

The following compounds are listed with their measured TGI values.
Test system: UACC-62 melanoma
assay.name: NCI tumour cell line growth inhibition, 48 h

These solved cases illustrate the format of a correct answer.
compound	measurement.name	result
COc1ccc(-c2nc(-c3ccccc3)c(-c3ccccc3)[nH]2)cc1OC1CCCC1	TGI	> 100 µM
O=c1ccn(C2CC(O)C(CO)O2)c(=O)[nH]1 (configuration not stated)	TGI	> 5000 µM
Cc1ccc(C(CC(=O)c2ccccc2)C2C(=O)NC(=O)NC2=O)cc1 (configuration not stated)	TGI	> 100 µM
COc1cc2c(cc1OC)C(=O)/C(=C/c1ccc(Cl)cc1)CC2	TGI	> 10 µM
C/C=C\C(CC(=O)NCCC1CN(S(=O)(=O)c2ccc(C)cc2)c2ccccc21)CC(=O)OC (configuration not stated)	TGI	> 100 µM

For reference, reported TGI for `CC(=O)NNc1nc(C)c(C(=O)/C=C/c2ccccc2Cl)s1` stands at > 100 µM

Lookup result for `CCOC(=O)c1nc2ccccc2nc1NCc1cc(OC)c(OC)c(OC)c1` ; measured TGI: > 100 µM

The measured TGI associated with Brc1cc(CCOC2CCCCO2)c(-c2sccc2CCOC2CCCCO2)s1 (configuration not stated) reads > 100 µM

The compound listed as O=C1Nc2nc3ccccc3n2N=C2CCCC12 (configuration not stated) has a reported TGI of > 100 µM

Kindly note the recorded TGI for `COc1ccc(-n2cnc3c2NC(C)(C)N=C3C(N)=O)c(OC)c1` , which is > 100 µM

Lab note: measured TGI of `COC(=O)c1sc(=S)sc1SCc1ccc(CSc2sc(=S)sc2C(=O)OC)cc1` was > 100 µM

# TGI of `O=C1NC(=S)N/C1=C\c1ccc(Br)s1` = > 100 µM

###

System: SNB-75 CNS
assay.name: NCI tumour cell line growth inhibition, 48 h
Here the recorded TGI is given for each entry.

Looking up OCC1C(/C=C/c2ccoc2)ON2CCCC12 (stereo unspecified) , I see its TGI listed as > 100 µM

The recorded TGI for entry `N#Cc1c(-c2ccc([N+](=O)[O-])cc2)c(C#N)c(=O)n(NS(=O)(=O)c2ccccc2)c1-c1ccccc1` equals > 100 µM

Lookup result for `CCOC(=O)C1=NN(c2ccc(C)cc2)C2=CC(C)=NN(C)C(=S)N21` ; measured TGI: > 100 µM

TGI measured on `C[C@@H](c1ccccc1)N1CN(C(=O)OCc2ccccc2)C(C)(C)CC1=O` = > 100 µM

Reported TGI for `c1ccc(C(c2ccccc2)c2cccnc2)cc1` was > 100 µM

Lab note: measured TGI of `COc1ccc(-n2c(=O)[nH]n(C(C)=O)c2=O)cc1` was > 100 µM

Notebook: `CCN(CC(=O)O)C(=O)c1cccnc1` , TGI read as > 100 µM

For record Cc1oc2c(C)c3oc(=O)cc(C)c3cc2c1CN1C(=O)C2OCCOCCOCCOCCOCCO[C@H]2C1=O (stereo partly specified) the listed TGI is > 100 µM

# TGI (compound: `COc1ccc2c(c1)[nH]c1c(/C=C/c3ccccc3)nccc12` ) is 32.3 µM

// sample `c1csc(-c2cn3nc(-c4c[nH]c5ccccc45)sc3n2)c1` , its TGI was 8.09 µM

For reference, reported TGI for `c1ccc(CN2CCC3(CC2)SSC2(CCN(Cc4ccccc4)CC2)S3)cc1` stands at > 100 µM

In plain terms, `COc1cccc(-n2nc(C)c3c(N/N=C(\C)c4ccncc4)ncnc32)c1` has a documented TGI of > 25 µM

Consider Nc1nc(N)c2nc(CNc3ccc(C(=O)NC(CC(=O)O)C(=O)O)cc3)cnc2n1 (stereo unspecified) . Its measured TGI is > 100 µM

Reported TGI of `C=CCc1cccc2cc(C(=O)Nc3ccccc3)c(=N)oc12` : > 100 µM

The compound identified as `O=C(c1ccc(Cl)cc1)N(C(=O)N1CCC(c2ccccc2)CC1)c1ccccc1` registered its TGI at 9.27 µM

Note to self: TGI recorded for CC(=O)OCC1OC(OC2CC3C(C)(C)C(OC(C)=O)CC[C@]3(C)C3CCC45CC4(CCC5[C@@H](C)C[C@H](O)C(O)C(C)(C)O)[C@]23C)C(O)C(O)C1O (stereo partly specified) was > 10 µM

Memo: OCC(O)C(Cl)CCl (stereo unspecified) , reported TGI: > 100 µM

// `O=c1c2ccccc2c(=O)n2n1CC=CC2` : TGI value = > 100 µM

For this compound ( `COc1cc(Nc2c(C#N)cnc3cc(OCCCN4CCN(C)CC4)c(OC)cc23)c(Cl)cc1Cl` ), measured TGI is 8.38 µM

TGI for `COc1ccc(-n2cnc3c2NC(C)(C)N=C3C(N)=O)c(OC)c1` is > 100 µM

Item: `Cc1cccc(CP(Cc2cccc(C)c2)CC2(Cp3c4ccccc4c4ccccc43)COC2)c1` | TGI: > 100 µM

###

Tested on: HCC-2998 colon
assay.name: NCI tumour cell line growth inhibition, 48 h
measurement.name: TGI

# example entries with known answers
compound	target.desc	measurement.name	result
COC(=O)c1ccccc1OCc1cc(=O)oc2ccc(C)cc12	HCC-2998 colon	TGI	> 100 µM
CCOC(=O)c1cn2c(n1)sc1c(Cl)c(Cl)ccc12	HCC-2998 colon	TGI	98 µM
Cc1ccc(C(CC(=O)c2ccccc2)C2C(=O)NC(=O)NC2=O)cc1 (stereo unspecified)	HCC-2998 colon	TGI	> 100 µM
C=CCOC(=O)NC1C(OC(C)[C@@H](NC(=O)OCc2ccccc2)C(=O)OC(C)(C)C)OC(COC(C)=O)C(OC(C)=O)C1OC(C)=O (stereo partly specified)	HCC-2998 colon	TGI	> 100 µM
Cc1nn(C(=O)c2ccc(Cl)cc2)c2c1C(c1ccccc1[N+](=O)[O-])SC(N)=N2 (stereo unspecified)	HCC-2998 colon	TGI	> 10 µM

Reported TGI ( CCOC(=O)C(NC(=O)c1ccco1)(Nc1nc2ccc(OCC)cc2s1)C(F)(F)F (stereo unspecified) ) = > 100 µM

// sample COC1OC(CBr)C(OC(=O)c2ccccc2)C(O)C1Br (stereo unspecified) , its TGI was > 100 µM

Per the records, this compound ( Cc1ccc(N(C(=O)Nc2ccccc2)C2=NCC(C)S2)cc1C (stereo unspecified) ) has TGI equal to > 10 µM

// COC(=O)C1CN=CN1CCc1ccccc1 (stereo unspecified) : TGI value = > 100 µM

Lab note: `CCOc1ccc(/C(Cl)=C(\C=O)c2ccc(OC)c(OC)c2)cc1OCC` gave TGI of > 100 µM

Noted for `COc1cc2c(ccc3c4cc(OC)c(OC)cc4c[n+](C)c23)cc1O` : its TGI reads 75 µM

Form field TGI, entry `Cc1ccc(/C=C/c2nnc(N/N=C/c3ccc4c(c3)OCO4)[nH]c2=O)cc1` : 79.8 µM

Lab note: measured TGI of CCOP(=O)(OCC)C(Nc1ccc(Br)cc1)c1cccc([N+](=O)[O-])c1 (stereo unspecified) was 32.4 µM

According to the records, this compound `Nc1ccc2c(SCc3ccc([N+](=O)[O-])cc3)c3ccccc3nc2c1` displays TGI of > 54 µM

TGI reading for `[N-]=[N+]=CC(=O)c1ccccc1C#CCCc1ccccc1` : > 100 µM

TGI for COc1cc([C@@H]2c3cc4c(cc3[C@@H](OC(=O)c3ccc(N)cc3)C3COC(=O)[C@@H]32)OCO4)cc(OC)c1O (stereo partly specified) is 36.3 µM

// recorded TGI for Clc1cc2c(cc1Cl)CC(NCCN1CCCC1)CC2 (stereo unspecified) : 8.02 µM

Lookup result for `COc1cccc(-n2nc(C)c3c(N/N=C(\C)c4ccncc4)ncnc32)c1` ; measured TGI: > 25 µM

Recorded result, `Cc1cc(C(=C2C=CC(=Nc3ccccc3)C=C2)c2ccc(Nc3ccccc3)cc2)ccc1N` , TGI: 0.452 µM

# TGI of `COc1cc(CO)c(CC(=O)NCCCc2ccccc2)cc1OC` = > 100 µM

`C1=CC=C2NCCCCCCCNC3=CC=CC=CC3=NCCCCCCCN=C2C=C1` has a reported TGI of > 100 µM

Given item `COc1cccc2c1ccc1nc3cccc(C(=O)N[C@H](C)CN(C)C)c3nc12` , the value recorded as its TGI is 0.298 µM

// sample Cc1cc(O)c(C2=NN(c3ccc(S(N)(=O)=O)cc3)C(c3ccccc3Cl)C2)cc1Cl (stereo unspecified) , its TGI was 3.91 µM

For record `CCN(CC(=O)O)C(=O)c1cccnc1` the listed TGI is > 100 µM

Per the record, OCC(O)C(Cl)CCl (stereo unspecified) has TGI of > 100 µM

Entry O=c1ccn(C2CC(O)C(CO)O2)c(=O)[nH]1 (stereo unspecified) , TGI reported as > 5000 µM

Entry under test: O=S(Nc1ccccc1)c1cccc(Cl)c1 (stereo unspecified) . Its TGI was 76.3 µM

// recorded TGI for `c1ccc(C(c2ccccc2)c2cccnc2)cc1` : > 100 µM
